Hi there, I'd appreciate the recorded glycan array binding signal (z-score) for every entry that follows.
- TARGET: Gal(a1-2)Gal
- MEASUREMENT_DESCRIPTION: glycan array binding signal (z-score within array); higher = stronger binding
- MEASUREMENT_CONDITIONS: glycan notation: IUPAC condensed, linker removed
This is one part of a sample in which the strongest signals are shown more often than they occur.
Answers are plain numbers.

Gal 12 (Homo sapiens), Q96DT0 (protein) MSQPSGGRAPGTRIYSWSCPTVMSPGEKLDPIPDSFILQPPVFHPVVPYVTTIFGGLHAGKMVMLQGVVPLDAHRFQVDFQCGCSLCPRPDIAFHFNPRFHTTKPHVICNTLHGGRWQREARWPHLALRRGSSFLILFLFGNEEVKVSVNGQHFLHFRYRLPLSHVDTLGIFGDILVEAVGFLNINPFVEGSREYPAGHPFLLMSPRLEVPCSHALPQGLSPGQVIIVRGLVLQEPKHFTVSLRDQAAHAPVTLRASFADRTLAWISRWGQKKLISAPFLFYPQRFFEVLLLFQEGGLKLALNGQGLGATSMNQQALEQLRELRISGSVQLYCVHS | -0.863
EUL D1A first (Oryza sativa) (protein) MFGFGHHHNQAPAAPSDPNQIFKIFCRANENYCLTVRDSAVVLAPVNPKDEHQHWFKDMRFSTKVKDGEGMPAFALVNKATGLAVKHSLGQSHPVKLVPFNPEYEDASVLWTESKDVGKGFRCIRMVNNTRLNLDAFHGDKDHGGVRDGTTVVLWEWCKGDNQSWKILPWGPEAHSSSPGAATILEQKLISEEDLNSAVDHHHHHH | -0.848

// next item, glycan array binding signal (z-score) requested
get_value(item= PNA (Arachis hypogaea), P02872 (protein) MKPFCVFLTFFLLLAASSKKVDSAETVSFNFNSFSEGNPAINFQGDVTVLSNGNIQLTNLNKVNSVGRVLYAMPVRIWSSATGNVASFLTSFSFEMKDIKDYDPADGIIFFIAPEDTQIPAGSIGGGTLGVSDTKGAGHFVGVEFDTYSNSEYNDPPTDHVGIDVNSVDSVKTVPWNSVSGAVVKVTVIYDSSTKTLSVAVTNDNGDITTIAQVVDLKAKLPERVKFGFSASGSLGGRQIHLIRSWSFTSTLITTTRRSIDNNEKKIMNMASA , readout=glycan array binding signal (z-score)) returns -0.169
